Experiment: MTT-based viability assay
Type: cell-based
Settings: human, MRC-5 human fibroblasts; 50 mg/L, 72 h; read-out: Viability of MRC-5 cells (% of viable cells ± SD)
READOUT_KIND: viability at 72 h, 50 mg/L (%)

| SMILES | READOUT_KIND | VALUE_OBSERVED |
| --- | --- | --- |
| COc1cc(B(O)O)c(OC)cc1B(O)O | viability at 72 h, 50 mg/L | 105 |
| OB(O)c1c(F)c(F)c(B(O)O)c(F)c1F | viability at 72 h, 50 mg/L | 98.7 |
| OB(O)c1cc(C(F)(F)F)cc(B(O)O)c1F | viability at 72 h, 50 mg/L | 63.1 |

* * *

Test system: P. aeruginosa MUW 700 cAmpC-positive
Assay: combination disc test CDT-AmpC
Assay type: cell-based
Details: Pseudomonas aeruginosa; agent 0.1 mg per disc; read-out: Diameter of inhibition zone, CAZ-30 disc with agent

| SMILES | zone of inhibition at 100 µg/disc |
| --- | --- |
| OB(O)c1cc(B(O)O)c(F)cc1F | 20 mm |
| OB(O)c1cc(F)c(B(O)O)c(F)c1F | 17 mm |
| OB(O)c1cc(F)c(B(O)O)cc1F | 18 mm |
| OB(O)c1cc(F)c(F)c(B(O)O)c1 | 18 mm |
| OB(O)c1cc(F)c(B(O)O)c(F)c1 | 17 mm |
| OB(O)c1cc(Br)c(B(O)O)cc1Br | 16 mm |
| OB(O)c1ccc(B(O)O)c(F)c1 | 20 mm |
| OB(O)c1cc(F)cc(B(O)O)c1 | 18 mm |
| OB(O)c1ccc(B(O)O)c(F)c1F | 18 mm |

* * *

Assay: MTT-based viability assay
Type: cell-based
Conditions: human, MRC-5 human fibroblasts; 16 mg/L, 72 h; read-out: Viability of MRC-5 cells (% of viable cells ± SD)
Reported values of viability at 72 h, 16 mg/L for individual entries

| MOLECULE | UNITS_SYMBOL | viability at 72 h, 16 mg/L |
| --- | --- | --- |
| OB(O)c1ccccc1B(O)O [3a, phenylene-1,2-diboronic acid] | % | 110 |
| OB(O)c1ccc(B(O)O)cc1 [1a] | % | 113 |

* * *

System: K. pneumoniae ATCC BAA-1705 KPC-2(+)
Assay: MIC of tested agent alone, microdilution
Assay type: cell-based
Conditions: Klebsiella pneumoniae, ATCCBAA1705; read-out: MIC of agent alone

| SMILES | UNITS_SYMBOL | CENSORING_QUALIFIER | MIC |
| --- | --- | --- | --- |
| OB(O)c1ccc(Br)c(B(O)O)c1 | µg/mL | > | 400 |
| OB(O)c1ccc(B(O)O)c(F)c1 | µg/mL | > | 400 |
| OB(O)c1ccc(B(O)O)c(F)c1F | µg/mL | = | 200 |
| OB(O)c1cc(B(O)O)cc(B(O)O)c1 | µg/mL | > | 400 |
| OB(O)c1ccc(B(O)O)c(B(O)O)c1 | µg/mL | > | 400 |
| OB(O)c1cc(F)c(B(O)O)c(F)c1 | µg/mL | = | 400 |
| OB(O)c1cc(B(O)O)c(F)cc1F | µg/mL | = | 400 |
| OB(O)c1cccc(B(O)O)c1 | µg/mL | > | 400 |
| OB(O)c1ccc(F)cc1B(O)O | µg/mL | > | 400 |
| OB(O)c1cc(Br)c(B(O)O)cc1Br | µg/mL | = | 200 |
| OB(O)c1cc(F)ccc1F | µg/mL | = | 100 |
| OB(O)c1cc(B(O)O)c(B(O)O)s1 | µg/mL | > | 400 |
| COc1c(B(O)O)cccc1B(O)O | µg/mL | > | 400 |
| OB(O)c1cccc(F)c1B(O)O | µg/mL | > | 400 |
| OB(O)c1cc(F)c(B(O)O)cc1F | µg/mL | = | 200 |
| OB(O)c1ccc(C(F)(F)F)cc1B(O)O | µg/mL | > | 400 |
| OB(O)c1ccccc1B(O)O | µg/mL | = | 400 |
| OB(O)c1cc(F)c(F)c(B(O)O)c1 | µg/mL | = | 400 |
| OB(O)c1cc(F)cc(B(O)O)c1 | µg/mL | > | 400 |

* * *

Tested on: C. guilliermondii IBA 155
Test: antifungal activity (disc-diffusion, MIC, MFC)
Type: cell-based, Candida guilliermondii
Settings: Meyerozyma guilliermondii, IBA155; fluconazole by Etest

| SMILES | MIC |
| --- | --- |
| OB(O)c1ccccc1S | 25 µg/mL |
| OB(O)c1ccsc1B(O)O | > 400 µg/mL |
| OB(O)c1c(F)c(F)c(F)c(F)c1B(O)O | 200 µg/mL |
| OB(O)c1cc(C(F)(F)F)cc(B(O)O)c1F | > 400 µg/mL |
| OB(O)c1cc(B(O)O)c(F)cc1F | > 400 µg/mL |
| OB(O)c1cc(F)c(B(O)O)c(F)c1 | 200 µg/mL |
| OB(O)c1c(F)c(F)c(B(O)O)c(F)c1F | > 400 µg/mL |
| OB(O)c1ccc(F)cc1B(O)O | > 400 µg/mL |
| OB(O)c1cc(F)c(B(O)O)c(F)c1F | 50 µg/mL |
| OB(O)c1cc(Br)c(B(O)O)cc1Br | 25 µg/mL |
| OB(O)c1cccc(F)c1B(O)O | 400 µg/mL |
| OB(O)c1ccccc1B(O)O | > 400 µg/mL |
| OB(O)c1cccc(B(O)O)c1 | > 400 µg/mL |
| C[Si](C)(C)c1cc(B(O)O)c([Si](C)(C)C)cc1B(O)O | > 100 µg/mL |
| COc1c(B(O)O)cccc1B(O)O | > 400 µg/mL |
| OB(O)c1cc(F)cc(B(O)O)c1 | > 400 µg/mL |
| OB(O)c1ccc(B(O)O)s1 | > 400 µg/mL |
| OB(O)c1cc(B(O)O)c(B(O)O)s1 | > 400 µg/mL |
| O=Cc1cc(F)ccc1B(O)O | 25 µg/mL |
| OB(O)c1ccc(B(O)O)c(B(O)O)c1 | > 400 µg/mL |
| OB(O)c1ccc(B(O)O)c(F)c1F | > 400 µg/mL |

* * *

Tested on: K. pneumoniae ATCC BAA 1705 KPC(+)
Experiment: screening test of direct antimicrobial activity (STDA), disc-diffusion
Type: cell-based
Conditions: Klebsiella pneumoniae, BAA1705; 0.3 mg per disc; - no zone; read-out: Diameter of inhibition zone around disc with tested agent
Procedure: Prior to combination disc tests, screening tests of direct antimicrobial activity (STDA) of the tested agent against β-lactamase-producing strains were performed by the disc-diffusion method. Discs with 0.3 mg, 0.1 mg, and 0.03 mg of each agent were examined. The highest amount of an agent that caused no effect on bacterial growth was used in further experiments.

| SMILES | UNITS_SYMBOL | zone of inhibition at 300 µg/disc |
| --- | --- | --- |
| OB(O)c1cc(B(O)O)c(F)cc1F | mm | 14 |
| OB(O)c1cc(F)c(B(O)O)c(F)c1F | mm | 16 |
| OB(O)c1ccc(B(O)O)c(F)c1 | mm | 13 |
| OB(O)c1ccc(B(O)O)c(F)c1F | mm | 12 |
| OB(O)c1cc(F)ccc1F | mm | 17 |
| OB(O)c1cc(F)c(F)c(B(O)O)c1 | mm | 11 |
| OB(O)c1cc(Br)c(B(O)O)cc1Br | mm | 15 |
| OB(O)c1cc(F)c(B(O)O)cc1F | mm | 15 |
| OB(O)c1cc(F)c(B(O)O)c(F)c1 | mm | 15 |
| O=Cc1cc(F)ccc1B(O)O | mm | 14 |

* * *

Experiment: MTT-based viability assay
Format: cell-based
Conditions: human; 12.5 mg/L, 72 h; read-out: Viability of MRC-5 cells (% of viable cells ± SD)

| COMPOUND | UNITS_SYMBOL | viability at 72 h, 12.5 mg/L |
| --- | --- | --- |
| C[Si](C)(C)c1cc(B(O)O)c([Si](C)(C)C)cc1B(O)O [1k] | % | 84.3 |
| OB(O)c1ccccc1 [PBA, phenylboronic acid, reference compound] | % | 81.5 |

* * *

Experiment: MTT-based viability assay
Type: cell-based
Conditions: human, MRC-5 human fibroblasts; 25 mg/L, 72 h; read-out: Viability of MRC-5 cells (% of viable cells ± SD)
// reported viability at 72 h, 25 mg/L per item
READOUT_KIND: viability at 72 h, 25 mg/L (%)

| SMILES | VALUE_OBSERVED |
| --- | --- |
| OB(O)c1ccc(F)cc1B(O)O | 106 |
| Cl.OB(O)c1cncc(B(O)O)c1 | 134 |
| OB(O)c1cccc(F)c1B(O)O | 91.2 |
| OB(O)c1ccccc1S | 6.6 |
| OB(O)c1cc(B(O)O)cc(B(O)O)c1 | 84.4 |
| OB(O)c1ccc(B(O)O)c(F)c1F | 103 |
